tested on: Pseudomonas Fluorescens; experiment: Toxicity of pyridinium CILs, IC50 against bacteria strains; assay type: cell-based; conditions: Pseudomonas fluorescens, read-out: IC50 values
pIC50: −log10 of the molar value.

compound	pIC50
COC(=O)C(c1ccc(OC)c(OC)c1)[n+]1ccccc1 (stereo not shown)	< 3.00

====

test system: Pseudomonas Putida (KT2440); assay: Toxicity of pyridinium CILs, IC50 against bacteria strains; type: cell-based; conditions: Pseudomonas putida, read-out: IC50 values

compound	IC50
COC(=O)C(c1ccc(OC)c(OC)c1)[n+]1ccccc1 (stereo not shown)	> 1000 µM

====

system: Aspergillus fumigatus 231; assay: In vitro antifungal activity, MIC by microdilution (NCCLS M27-A); conditions: AF, 24 h

molecule	MIC/IC80
CCOCCOC(=O)[C@H](OC(=O)C[n+]1ccn(C)c1)c1ccccc1	>1000 µmol/L
CCCCCOC(=O)[C@H](OC(=O)C[n+]1ccn(C)c1)c1ccccc1	1000 µmol/L
CCCCCCCCOS(=O)(=O)[O-].CCOCCOC(=O)C(OC(=O)Cn1cc[n+](C)c1)c1ccccc1 (stereo not drawn)	>1000 µmol/L
COC(=O)[C@H](OC(=O)C[n+]1ccn(C)c1)c1ccccc1	>1000 µmol/L
CCOCCOC(=O)C(C)OC(=O)Cn1cc[n+](C)c1.[Br-] (stereo not drawn)	>1000 µmol/L
CCOCCOC(=O)C(OC(=O)Cn1cc[n+](C)c1)c1ccccc1.[Br-] (stereo not drawn)	>1000 µmol/L
CCCCCOC(=O)[C@@H](OC(=O)Cn1cc[n+](C)c1)c1ccccc1.[Br-]	1000 µmol/L
CCOCCOC(=O)[C@@H](OC(=O)Cn1cc[n+](C)c1)c1ccccc1.[Br-]	>1000 µmol/L
CCCCCCCCOS(=O)(=O)[O-].COC(=O)[C@@H](OC(=O)Cn1cc[n+](C)c1)c1ccccc1	>1000 µmol/L

====

Let's look at some compounds and their measured MIC/IC80.
system: Aspergillus fumigatus 231; assay: In vitro antifungal activity, MIC by microdilution (NCCLS M27-A); conditions: AF, 48 h

compound	MIC/IC80
CCCCCCCCOS(=O)(=O)[O-].CCOCCOC(=O)C(C)OC(=O)Cn1cc[n+](C)c1 (stereo not drawn)	>1000 µM
COC(=O)C(OC(=O)C[n+]1ccn(C)c1)c1ccccc1 (stereo not drawn)	>1000 µM
CCCCCOC(=O)C(OC(=O)Cn1cc[n+](C)c1)c1ccccc1.[Br-] (stereo not drawn)	1000 µM
COC(=O)[C@@H](OC(=O)C[n+]1ccn(C)c1)c1ccccc1	>1000 µM
CCCCCCCCOS(=O)(=O)[O-].CCCCCOC(=O)[C@@H](OC(=O)Cn1cc[n+](C)c1)c1ccccc1	>1000 µM
COC(=O)[C@H](OC(=O)C[n+]1ccn(C)c1)c1ccccc1	>1000 µM
CCCCCOC(=O)[C@H](OC(=O)C[n+]1ccn(C)c1)c1ccccc1	1000 µM
CCCCCCCCOS(=O)(=O)[O-].COC(=O)[C@@H](OC(=O)Cn1cc[n+](C)c1)c1ccccc1	>1000 µM
CCOCCOC(=O)[C@@H](OC(=O)Cn1cc[n+](C)c1)c1ccccc1.[Br-]	>1000 µM
CCOCCOC(=O)C(OC(=O)Cn1cc[n+](C)c1)c1ccccc1.[Br-] (stereo not drawn)	>1000 µM
CCOCCOC(=O)[C@@H](C)OC(=O)C[n+]1ccn(C)c1	>1000 µM
CCCCCOC(=O)[C@@H](C)OC(=O)C[n+]1ccn(C)c1	>1000 µM
CCCCCCCCOS(=O)(=O)[O-].CCOCCOC(=O)[C@@H](OC(=O)Cn1cc[n+](C)c1)c1ccccc1	>1000 µM
CCCCCOC(=O)[C@@H](OC(=O)Cn1cc[n+](C)c1)c1ccccc1.[Br-]	1000 µM
CCOCCOC(=O)C(C)OC(=O)Cn1cc[n+](C)c1.[Br-] (stereo not drawn)	>1000 µM
CCOCCOC(=O)[C@H](OC(=O)C[n+]1ccn(C)c1)c1ccccc1	>1000 µM
CCCCCCCCOS(=O)(=O)[O-].CCCCCOC(=O)C(OC(=O)Cn1cc[n+](C)c1)c1ccccc1 (stereo not drawn)	>1000 µM
CCCCCCCCOS(=O)(=O)[O-].CCOCCOC(=O)C(OC(=O)Cn1cc[n+](C)c1)c1ccccc1 (stereo not drawn)	>1000 µM
